Record: pKd reported on matrix metalloproteinase-9 (MMP-9) (Homo sapiens, UniProt P14780).
Sequence (P14780 94-707): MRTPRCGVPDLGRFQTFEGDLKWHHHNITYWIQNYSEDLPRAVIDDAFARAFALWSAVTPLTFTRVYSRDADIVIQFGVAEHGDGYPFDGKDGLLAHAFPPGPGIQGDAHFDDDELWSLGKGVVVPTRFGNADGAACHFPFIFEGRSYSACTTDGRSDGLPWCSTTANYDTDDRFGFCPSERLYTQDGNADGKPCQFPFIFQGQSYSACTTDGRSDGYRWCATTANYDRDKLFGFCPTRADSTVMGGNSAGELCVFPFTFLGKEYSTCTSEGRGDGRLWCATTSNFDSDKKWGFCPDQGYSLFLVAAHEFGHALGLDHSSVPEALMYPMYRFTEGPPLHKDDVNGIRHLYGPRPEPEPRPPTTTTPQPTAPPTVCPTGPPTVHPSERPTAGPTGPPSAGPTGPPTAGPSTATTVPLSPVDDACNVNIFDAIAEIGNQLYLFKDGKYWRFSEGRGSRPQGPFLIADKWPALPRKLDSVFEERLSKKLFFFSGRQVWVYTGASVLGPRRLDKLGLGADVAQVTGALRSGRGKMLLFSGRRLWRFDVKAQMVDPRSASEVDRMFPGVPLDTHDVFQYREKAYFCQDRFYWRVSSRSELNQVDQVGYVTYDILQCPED
pKd: −log10 of the molar value.
Quantity Measured: pKd

[P] O=C1C[C@@H](c2ccc(O[C@@H]3O[C@H](CO)[C@@H](O)[C@H](O)[C@H]3O)cc2)Oc2cc(O)ccc21 [Liquiritin]
[Q] O=C(/C=C/c1ccc(O[C@@H]2O[C@H](CO)[C@@H](O)[C@H](O)[C@H]2O)cc1)c1ccc(O)cc1O [Isoliquiritin]
Please indicate which item has the smaller measured pKd: P versus Q Respond using the label that marks the chosen record.
P
(P: 3.98, Q: 5.57)

###

Molecular target: mitogen-activated protein kinase (MAPK1) (Homo sapiens)
Sequence (P28482 whole entry): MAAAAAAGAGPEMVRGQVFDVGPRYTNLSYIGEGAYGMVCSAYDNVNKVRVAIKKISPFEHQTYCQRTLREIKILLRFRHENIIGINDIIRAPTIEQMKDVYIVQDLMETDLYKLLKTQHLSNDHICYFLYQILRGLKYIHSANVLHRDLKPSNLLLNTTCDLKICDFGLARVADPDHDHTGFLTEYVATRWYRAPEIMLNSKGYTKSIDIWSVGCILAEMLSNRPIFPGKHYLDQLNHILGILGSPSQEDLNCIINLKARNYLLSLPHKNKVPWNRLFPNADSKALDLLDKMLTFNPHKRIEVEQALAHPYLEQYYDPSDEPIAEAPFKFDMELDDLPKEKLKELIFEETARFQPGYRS
Assay: SPR analysis
Quantity Measured: Kd (µM)

[I] COc1ccc(-c2coc3cc(O[C@@H]4O[C@H](CO)[C@@H](O)[C@H](O)[C@H]4O)ccc3c2=O)cc1
[II] O=C1C[C@@H](c2ccc(O[C@@H]3O[C@H](CO)[C@@H](O)[C@H](O)[C@H]3O)cc2)Oc2cc(O)ccc21
[III] CC(C)=CCc1cc2c(cc1O)O[C@H](c1ccc(O)cc1)CC2=O
[IV] COc1cc2c(cc1CC=C(C)C)C(=O)C[C@@H](c1ccc(O)cc1)O2
List the 4 compounds shown above, ordered by increasing Kd. Please list the labels according to the requested order.
IV, III, I, II
(IV: 6.05 µM, III: 26.6 µM, I: 41.4 µM, II: 382 µM)

###

Molecular target: nuclear factor kappa B (NFKB1) (Homo sapiens)
Sequence (P19838 1-968): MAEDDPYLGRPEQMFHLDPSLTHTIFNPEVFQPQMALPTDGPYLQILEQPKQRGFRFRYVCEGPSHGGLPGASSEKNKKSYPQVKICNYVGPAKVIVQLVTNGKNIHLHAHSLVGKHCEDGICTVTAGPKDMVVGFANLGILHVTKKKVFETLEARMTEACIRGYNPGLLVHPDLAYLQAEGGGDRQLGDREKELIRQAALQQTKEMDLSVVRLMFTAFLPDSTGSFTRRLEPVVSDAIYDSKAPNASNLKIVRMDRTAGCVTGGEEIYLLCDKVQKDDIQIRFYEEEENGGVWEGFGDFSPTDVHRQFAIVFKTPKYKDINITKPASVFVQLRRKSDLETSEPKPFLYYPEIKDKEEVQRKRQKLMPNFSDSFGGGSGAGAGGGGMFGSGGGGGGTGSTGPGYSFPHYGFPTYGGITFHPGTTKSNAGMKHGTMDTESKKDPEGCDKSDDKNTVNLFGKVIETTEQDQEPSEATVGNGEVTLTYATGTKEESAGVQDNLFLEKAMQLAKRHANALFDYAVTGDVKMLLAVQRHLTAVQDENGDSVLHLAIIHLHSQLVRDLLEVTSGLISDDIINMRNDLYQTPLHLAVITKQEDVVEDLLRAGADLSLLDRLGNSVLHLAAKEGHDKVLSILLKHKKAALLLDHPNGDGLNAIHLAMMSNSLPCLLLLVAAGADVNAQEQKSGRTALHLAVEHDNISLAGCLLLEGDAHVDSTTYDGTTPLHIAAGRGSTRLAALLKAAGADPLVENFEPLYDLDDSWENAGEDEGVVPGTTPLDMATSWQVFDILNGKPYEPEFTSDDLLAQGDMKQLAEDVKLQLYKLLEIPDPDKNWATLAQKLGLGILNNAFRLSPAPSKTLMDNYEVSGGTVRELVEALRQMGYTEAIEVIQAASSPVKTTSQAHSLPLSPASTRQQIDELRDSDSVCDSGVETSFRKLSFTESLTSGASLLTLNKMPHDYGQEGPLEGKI
Quantity Measured: Kd (µM)
State just the number; it will be interpreted in µM.

Just so you know, measured Kd for COc1ccc(-c2coc3cc(O)ccc3c2=O)cc1 came out at 32.5
